tested on: MCF-7 cells; assay: cells; format: cell-based, human; settings: Homo sapiens, MCF7; MCF-7; 72 h; 1 μM CuSO4; read-out: IC50 with 1 μM CuSO4
assay-endpoint: IC50 (nM)
One number for each entry, in nM.

CCN(CC)C(=S)SSC(=S)N(CC)CC [DSF, disulfiram, reference compound]
47

Okay, next one:
According to the records, this molecule CCN(CC)C(=S)SCc1ccc(NC(=O)CC[C@H](N)C(=O)O)cc1 [Glu-DTC] displays IC50 of 480

* * *

System: LNCaP cells
Assay: cells
Type: cell-based, human
Details: Homo sapiens, LNCaP, 24 h, initial experiments; LNCaP; after 24 h; 1 μM supplemental Cu(II); read-out: IC50
Protocol: Antiproliferation assay: To determine the amount of Cu(II) required for cell studies a checkerboard assay was performed by varying the prodrug or drug concentration and Cu(II) concentration. […] Cell proliferation was measured using a fluorometric resazurin reduction method. […] Fluorescence at 580 nm was measured by exciting at 555 nm with a plate reader. […]
assay-endpoint: IC50 (nM)
Numbers only, in nM.

According to the records, this molecule `CCN(CC)C(=S)SCc1ccc(NC(=O)CC[C@H](N)C(=O)O)cc1` displays IC50 of 760

* * *

tested on: PWR-1E cells; assay: cells; assay type: cell-based, human; conditions: Homo sapiens, PWR-1E, Table 1; PWR-1E; time and Cu not given; read-out: IC50 values
assay-endpoint: IC50 (nM)
Give bare numbers, in nM.

According to the records, this compound CCN(CC)C(=S)SSC(=S)N(CC)CC [DSF, disulfiram, reference compound] displays IC50 of 72

* * *

So I've got a bunch of molecules here, and I need their IC50 values.
system: PC-3 cells; assay: cells; assay type: cell-based, human; conditions: Homo sapiens; PC-3; 72 h; 1 μM CuSO4; read-out: IC50 with 1 μM CuSO4
One number for each entry, in nM.

CCN(CC)C(=S)SSC(=S)N(CC)CC [DSF, disulfiram, reference compound]
57

Okay, next one:
According to the records, this molecule `CCN(CC)C(=S)SCc1ccc(NC(=O)CC[C@H](N)C(=O)O)cc1` displays IC50 of 1320

* * *

Test system: PWR-1E cells
Assay: cells
Format: cell-based, human
Settings: PWR-1E; 72 h; 1 μM CuSO4; read-out: IC50 with 1 μM CuSO4
Method: Antiproliferation assay: To determine the amount of Cu(II) required for cell studies a checkerboard assay was performed by varying the prodrug or drug concentration and Cu(II) concentration. […] Cell proliferation was measured using a fluorometric resazurin reduction method. […] Fluorescence at 580 nm was measured by exciting at 555 nm with a plate reader. […]
assay-endpoint: IC50

According to the records, this molecule CCN(CC)C(=S)SCc1ccc(NC(=O)CC[C@H](N)C(=O)O)cc1 [Glu-DTC] displays IC50 of 1550 nM
